- Test system: 388556-164-R-J1-PDC complex spheroid viability
- Measurement Description: Anticancer human tumor 388556-164-R-J1-PDC patient-derived colon adenocarcinoma cell line growth inhibition [RAS]
- Study Conditions: second compound 0.0316 µM; first compound 3.16 µM; hits give low values
Would you mind telling me the reported viability, T/C of each entry?
Quick reminder: number only, in %, skip the unit.

Inquiry: Tell me viability, T/C reported for CC(Nc1ccc2c(c1)OCCn1cc(N3C(=O)OCC3C(F)F)nc1-2)C(N)=O (stereo not given) + C#Cc1c(F)ccc2cc(O)cc(-c3ncc4c(N5CC6CCC(C5)N6)nc(OCC56CCCN5CC(F)C6)nc4c3F)c12
Reply text: 76.6

Inquiry: Tell me viability, T/C reported for C[C@@H](NC(=O)c1ncnc(N)c1Cl)c1ncc(C(=O)Nc2cc(C(F)(F)F)c(Cl)cn2)s1 + C#Cc1c(F)ccc2cc(O)cc(-c3ncc4c(N5CC6CCC(C5)N6)nc(OCC56CCCN5CC(F)C6)nc4c3F)c12
Reply text: 116

Inquiry: Tell me viability, T/C reported for C[C@@H](NC(=O)c1ncnc(N)c1Cl)c1ncc(C(=O)Nc2cc(C(F)(F)F)c(Cl)cn2)s1 + C=CC(=O)N1CCN(c2nc(OCC3CCCN3C)nc3c(F)c(-c4nc(N)cc(C)c4C(F)(F)F)c(Cl)cc23)C(C)C1
Reply text: 128

Inquiry: Tell me viability, T/C reported for NC1c2ccccc2OC12CCN(c1cnc3c(N4CCCc5ncccc54)n[nH]c3n1)CC2 (stereo not given) + C#Cc1c(F)ccc2cc(O)cc(-c3ncc4c(N5CC6CCC(C5)N6)nc(OCC56CCCN5CC(F)C6)nc4c3F)c12
Reply text: 35.2

Inquiry: Tell me viability, T/C reported for CC1(O)CCCC1n1c(=O)c(C(F)F)cc2cnc(NC3CCN(S(C)(=O)=O)CC3)nc21 (stereo not given) + C#Cc1c(F)ccc2cc(O)cc(-c3ncc4c(N5CC6CCC(C5)N6)nc(OCC56CCCN5CC(F)C6)nc4c3F)c12
Reply text: 111

----------
Would you mind telling me the reported viability, T/C of each entry?
- Test system: 388556-164-R-J1-PDC complex spheroid viability
- Measurement Description: Anticancer human tumor 388556-164-R-J1-PDC cell line growth inhibition [RAS];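 further: spheroids exposed to compound for 7 days before readout; 100% = DMSO vehicle control luminescence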
- Study Conditions: second compound 0.000949 µM; first compound 0.0316 µM; hits give low values
- Text: RAS pathway inhibitors in Combinations in Complex Spheroids A high-throughput screen of multi-cell type tumor spheroids was designed to identify active combinations of RAS pathway inhibitors and targeted small molecules. Complex spheroids include a stromal component modeled by human endothelial cells (HUVEC) and fibroblasts modeled by human mesenchymal stem cells (MSCs). […] Compounds. […] If the clinical Cmax for an agent had not been determined, the highest concentration tested was 10 microM. […]
Quick reminder: number only, in %, skip the unit.

Inquiry: Tell me viability, T/C reported for CC(Nc1ccc2c(c1)OCCn1cc(N3C(=O)OCC3C(F)F)nc1-2)C(N)=O (configuration not stated) + CCn1c(-c2cc(N3CCN(C)CC3)cnc2C(C)OC)c2c3cc(ccc31)-c1csc(n1)CC(NC(=O)C1CC1C)C(=O)N1CCCC(N1)C(=O)OCC(C)(C)C2
Reply text: 89.5

Inquiry: Tell me viability, T/C reported for C=CC(=O)Nc1cc(Nc2nccc(-c3cn(C)c4ccccc34)n2)c(OC)cc1N(C)CCN(C)C + CCn1c(-c2cc(N3CCN(C)CC3)cnc2C(C)OC)c2c3cc(ccc31)-c1csc(n1)CC(NC(=O)C1CC1C)C(=O)N1CCCC(N1)C(=O)OCC(C)(C)C2
Reply text: 93.5

Inquiry: Tell me viability, T/C reported for C[C@@H](NC(=O)c1ncnc(N)c1Cl)c1ncc(C(=O)Nc2cc(C(F)(F)F)c(Cl)cn2)s1 + CCn1c(-c2cccnc2C(C)OC)c2c3cc(ccc31)N1CCOC(CC(NC(=O)C(C(C)C)N(C)C(=O)C3(F)CCN(C(=O)C#CC(C)(C)N(C)C)CC3)C(=O)N3CCCC(N3)C(=O)OCC(C)(C)C2)C1
Reply text: 113

Inquiry: Tell me viability, T/C reported for CC(Nc1ccc2c(c1)OCCn1cc(N3C(=O)OCC3C(F)F)nc1-2)C(N)=O (configuration not stated) + CCn1c(-c2cccnc2C(C)OC)c2c3cc(ccc31)N1CCOC(CC(NC(=O)C(C(C)C)N(C)C(=O)C3(F)CCN(C(=O)C#CC(C)(C)N(C)C)CC3)C(=O)N3CCCC(N3)C(=O)OCC(C)(C)C2)C1
Reply text: 96.7

Inquiry: Tell me viability, T/C reported for C[C@@H](NC(=O)c1ncnc(N)c1Cl)c1ncc(C(=O)Nc2cc(C(F)(F)F)c(Cl)cn2)s1 + CCn1c(-c2cc(N3CCN(C)CC3)cnc2C(C)OC)c2c3cc(ccc31)-c1csc(n1)CC(NC(=O)C1CC1C)C(=O)N1CCCC(N1)C(=O)OCC(C)(C)C2
Reply text: 96.3

Inquiry: Tell me viability, T/C reported for CCC(CC)c1cc(NC2CCC(N)C2)n2nccc2n1 (configuration not stated) + CCn1c(-c2cccnc2C(C)OC)c2c3cc(ccc31)N1CCOC(CC(NC(=O)C(C(C)C)N(C)C(=O)C3(F)CCN(C(=O)C#CC(C)(C)N(C)C)CC3)C(=O)N3CCCC(N3)C(=O)OCC(C)(C)C2)C1
Reply text: 101

Inquiry: Tell me viability, T/C reported for CC(C)n1nc(-c2ccc3oc(N)nc3c2)c2c(N)ncnc21 + CCn1c(-c2cc(N3CCN(C)CC3)cnc2C(C)OC)c2c3cc(ccc31)-c1csc(n1)CC(NC(=O)C1CC1C)C(=O)N1CCCC(N1)C(=O)OCC(C)(C)C2
Reply text: 56.4

Entry source: PubChem BioAssay AID2060907
